- experimental.target: T1, Recombinant human PD-1 (Sino Biological Inc., Catalog Number 10377-H08H) (human, UniProt Q15116 25-167)
- T1 construct: Bought protein; also called antigen PD-1
- T1 sequence (Q15116 25-167 limits assumed): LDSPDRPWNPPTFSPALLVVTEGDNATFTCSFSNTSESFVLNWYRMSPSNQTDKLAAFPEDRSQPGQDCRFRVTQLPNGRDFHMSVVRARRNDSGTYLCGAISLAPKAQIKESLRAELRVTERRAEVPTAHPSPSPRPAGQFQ
- assay.summary: ELISA, human PD-1 coated
endpoint.label: EC50 (pM)
Give the value, in units of pM, as a plain number.

Some entries whose results are on file:
binder	quantitative.readout
anti-human PD-1 chimeric monoclonal antibody (antibody, human IgG4 S228P, kappa, V domains shown, expressed in 293F cells; also called Anti-human PD-1 Chimeric Antibody; chimeric anti-human PD-1 monoclonal antibody) VH: EVQLQESGGGLVKPGGSLKLSCAASGFTFSSYGMSWVRQTPEKRLEWVASISGGGRYTYYPDSMKGRFTISRDNAKNNLHLQMSSLRSEDTALYYCVYEYFYTMDYWGQGTSVTVSS VL: DIVLTQSPATLSVTPGDSVSLSCRANQSISNNLHWYQQRSHESPRLLIRFASQSISGIPSRFSGSGSGTDFTLSINSVETEDFGMYFCQQSDNWPLTFGAGTKLEIKR	31
AH00296-N26S (antibody, human IgG4 S228P, kappa, V domains shown, also called AII00296-N26S) VH: EVNLVESGGGLVQPGGSLRLSCAASGFTFSSYGMSWVRQAPGKGLEWVASISGGGRYTYYPDSMKGRFTISRDNSKNTLYLQMNSLRAEDTAVYYCVYEYFYTMDYWGQGTLVTVSS VL: DIVLTQSPATLSLSPGERATLSCRASQSISNNLHWYQQKPGQAPRLLIRFASQSISGIPARFSGSGSGTDFTLTISSLEPEDFAVYFCQQSDNWPLTFGGGTKVEIKR	37
BMIV (antibody, human IgG4 S228P, kappa, V domains shown) VH: EVNLVESGGGLVQPGGSLRLSCAASGFTFSSYGMSWVRQTPGKGLEWVASISGGGRYTYYPDSMKGRFTISRDNSKNNLHLQMSSLRAEDTAVYYCVYEYFYTMDYWGQGTLVTVSS VL: DVVLTQSPATLSVSPGERVTLSCRANQSISNNLHWYQQKSHQSPRLLIRFASQSISGIPARFSGSGSGTDFTLTISSVETEDFGVYFCQQSDNWPLTFGGGTKLEIKR	28
AH00290 (antibody, human IgG4 S228P, kappa, V domains shown, also called humanized anti-human PD-1 monoclonal antibody AH00290) VH: EVNLVESGGGLVQPGGSLRLSCAASGFTFSSYGMSWVRQAPGKGLEWVSSISGGGRYTYYPDSMKGRFTISRDNSKNTLYLQMNSLRAEDTAVYYCVYEYFYTMDYWGQGTLVTVSS VL: DIVLTQSPATLSLSPGERATLSCRANQSISNNLHWYQQKPGQAPRLLIRFASQSISGIPARFSGSGSGTDFTLTISSLEPEDFAVYFCQQSDNWPLTFGGGTKVEIKR	24
AH00293 (antibody, human IgG4 S228P, kappa, V domains shown, also called humanized anti-human PD-1 monoclonal antibody AH00293) VH: EVNLVESGGGLVQPGGSLRLSCAASGFTFSSYGMSWVRQAPGKGLEWVASISGGGRYTYYPDSMKGRFTISRDNSKNNLYLQMNSLRAEDTAVYYCVYEYFYTMDYWGQGTLVTVSS VL: DIVLTQSPATLSLSPGERATLSCRANQSISNNLHWYQQKPGQAPRLLIRFASQSISGIPARFSGSGSGTDFTLTISSLEPEDFAVYYCQQSDNWPLTFGGGTKVEIKR	26
AH00296-N26Q (antibody, human IgG4 S228P, kappa, V domains shown) VH: EVNLVESGGGLVQPGGSLRLSCAASGFTFSSYGMSWVRQAPGKGLEWVASISGGGRYTYYPDSMKGRFTISRDNSKNTLYLQMNSLRAEDTAVYYCVYEYFYTMDYWGQGTLVTVSS VL: DIVLTQSPATLSLSPGERATLSCRAQQSISNNLHWYQQKPGQAPRLLIRFASQSISGIPARFSGSGSGTDFTLTISSLEPEDFAVYFCQQSDNWPLTFGGGTKVEIKR	44

Prompt: EC50 lookup needed for BMIII (antibody, human IgG4 S228P, kappa, V domains shown) VH: EVNLVESGGGLVQPGGSLRLSCAASGFTFSSYGMSWVRQTPGKGLEWVASISGGGRYTYYPDSMKGRFTISRDNSKNNLYLQMNSLRAEDTAVYYCVYEYFYTMDYWGQGTLVTVSS VL: DVVLTQSPATLSVSPGERVTLSCRANQSISNNLHWYQQKPGQSPRLLIRFASQSISGIPARFSGSGSGTDFTLTISSVEPEDFGVYFCQQSDNWPLTFGGGTKLEIKR , thanks.
Response: 34

Prompt: Another binder to check: AH00296-S28A (antibody, human IgG4 S228P, kappa, V domains shown) VH: EVNLVESGGGLVQPGGSLRLSCAASGFTFSSYGMSWVRQAPGKGLEWVASISGGGRYTYYPDSMKGRFTISRDNSKNTLYLQMNSLRAEDTAVYYCVYEYFYTMDYWGQGTLVTVSS VL: DIVLTQSPATLSLSPGERATLSCRANQAISNNLHWYQQKPGQAPRLLIRFASQSISGIPARFSGSGSGTDFTLTISSLEPEDFAVYFCQQSDNWPLTFGGGTKVEIKR
Response: 48
